Entry source: the kinase profiling compilation of Christmann-Franck et al. (2016)

- tested on: NEK4 (human)
recorded metric: Ki (nM)

>>> print(df.to_string())
                      smiles_repr  recorded_value
0  O=C1c2ccccc2-c2n[nH]c3cccc1c23            1000

###

- tested on: UniProtKB O15075
- Sequence (O15075 whole entry, looked up): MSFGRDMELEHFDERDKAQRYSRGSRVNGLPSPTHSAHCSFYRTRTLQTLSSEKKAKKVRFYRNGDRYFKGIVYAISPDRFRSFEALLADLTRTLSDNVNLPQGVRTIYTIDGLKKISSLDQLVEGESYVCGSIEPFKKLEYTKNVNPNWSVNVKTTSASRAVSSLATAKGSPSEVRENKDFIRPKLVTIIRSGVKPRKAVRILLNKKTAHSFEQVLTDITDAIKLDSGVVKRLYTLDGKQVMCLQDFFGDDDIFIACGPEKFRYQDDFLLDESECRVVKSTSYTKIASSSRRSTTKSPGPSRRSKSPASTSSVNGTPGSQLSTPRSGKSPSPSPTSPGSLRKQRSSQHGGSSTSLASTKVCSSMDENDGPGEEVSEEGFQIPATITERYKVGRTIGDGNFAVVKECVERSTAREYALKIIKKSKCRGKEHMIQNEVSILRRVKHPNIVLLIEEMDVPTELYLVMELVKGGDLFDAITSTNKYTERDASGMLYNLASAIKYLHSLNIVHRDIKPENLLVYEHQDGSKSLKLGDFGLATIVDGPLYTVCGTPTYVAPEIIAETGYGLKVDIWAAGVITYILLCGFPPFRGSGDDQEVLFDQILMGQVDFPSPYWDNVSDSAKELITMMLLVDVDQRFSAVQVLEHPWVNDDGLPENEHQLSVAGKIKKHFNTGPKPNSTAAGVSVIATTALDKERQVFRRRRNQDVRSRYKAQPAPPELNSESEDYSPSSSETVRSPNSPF
pKi: −log10 of the molar value.
recorded metric: pKi

                      smiles_repr  recorded_value
0  O=C1c2ccccc2-c2n[nH]c3cccc1c23          < 5.00

###

As an illustration, consider measured Ki for molecules on SGK1 (human).
recorded metric: Ki (µM)

In [3]: df
Out[3]:
                                 smiles_repr  unit_of_measure  qualifier  recorded_value
 0        O=c1c(NCc2ccccc2F)c(Nc2ccncc2)c1=O               µM          =           0.794
 1  O=C(NCc1ccccc1)c1cccc(-c2cnc3[nH]ccc3c2)c1               µM          >              10
 2             OCCNc1cc2cc(-c3ccncc3)ccc2cn1               µM          >              10
 3  Cc1cccc(NC(=O)Nc2ccc(-c3csc4c(C#CCNS(C)(=O)=O)cnc(N)c34)cc2)c1               µM          =              10
 4    CC(C)Nc1c(-c2ccc3[nH]ncc3c2)nc2ncccn12               µM          =            1.26
 5  NC(=O)Cn1cc(-c2cc(-c3cc4ccccc4s3)c3[nH]ncc3c2)c2nc(N)ncc21               µM          >              10
 6  Nc1ncnc2sc(Br)c(-c3ccc(NC(=O)Cc4cccc(Cl)c4)cc3)c12               µM          >              10
 7  CCn1c(C)c(-c2ccnc(Nc3cccc(OC)c3)n2)sc1=O               µM          =           0.316
 8  CC(C)n1nnc2ccc(-c3c(-c4ccc(F)cc4F)nc4occn34)cc21               µM          >              10
 9  CN(C)CCCC(=O)Nc1n[nH]c2nnc(-c3cccc(F)c3F)cc12               µM          >              10
10         NNc1cc(N2CCOCC2)nc(OCCc2ccccn2)n1               µM          >              10
11   Nc1n[nH]c2ccc(-c3nnn(Cc4ccccc4)c3I)cc12               µM          =          0.0631
12  NC(=O)c1sc(-n2cnc3ccccc32)cc1OCc1ccccc1C(F)(F)F               µM          >              10
13         Cc1n[nH]c2ncc(C#N)c(-c3ccccc3)c12               µM          =            3.98
14  COc1cc2c(cc1F)C(c1ccccc1Cl)=Nc1c(n[nH]c1C)N2               µM          =            7.94
15  Cc1n[nH]c2ccc(-c3cncc(OC[C@@H](N)Cc4cccc(OC(F)(F)F)c4)c3)cc12               µM          =           0.316
16  CN(C)CC(C)(C)CNc1nccc(-c2c(-c3ccc(F)cc3)nc3occn23)n1               µM          >              10
17                   O=C1Nc2ccccc2Nc2nnccc21               µM          >              10
18  O=C(N[C@H](CO)c1ccccc1)N1CC=C(c2c[nH]c3ncccc23)CC1               µM          =           0.398
19    C[C@H](N)COc1cnc(Cl)c(/C=C/c2ccncc2)c1               µM          =            5.01
20  CCN1CCN(CCCC(=O)Nc2n[nH]c3nnc(-c4cccc(F)c4F)cc23)CC1               µM          >              10
21  Cc1cccc(NC(=O)Nc2ccc(-c3cccc4[nH]nc(N)c34)cc2)c1               µM          =               1

###

As an illustration, consider measured Ki for compounds on SGK1 (human) (UniProt O00141).
Sequence (O00141 whole entry, looked up): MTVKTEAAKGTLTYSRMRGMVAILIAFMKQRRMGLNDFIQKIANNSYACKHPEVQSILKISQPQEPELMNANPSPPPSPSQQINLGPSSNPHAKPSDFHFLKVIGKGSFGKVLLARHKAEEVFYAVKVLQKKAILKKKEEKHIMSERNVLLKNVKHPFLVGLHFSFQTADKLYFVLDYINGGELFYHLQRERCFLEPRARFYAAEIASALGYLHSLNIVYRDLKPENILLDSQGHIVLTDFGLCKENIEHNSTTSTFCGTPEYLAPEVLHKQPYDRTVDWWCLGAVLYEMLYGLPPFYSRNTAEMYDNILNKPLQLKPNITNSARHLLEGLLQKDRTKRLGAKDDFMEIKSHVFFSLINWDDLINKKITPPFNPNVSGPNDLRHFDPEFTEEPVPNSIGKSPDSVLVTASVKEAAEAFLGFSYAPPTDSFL
recorded metric: Ki

>>> df
                                smiles_repr                      tested_on  recorded_value
0  Cc1ccc(NC(=O)Nc2ccc(-c3cccc4c3CNC4=O)cc2)cc1C  SGK1 (human) (UniProt O00141)         > 10 µM
1  COc1cc(-c2ccc3c(c2)Nc2ccc(C(=O)NCc4cccc(F)c4)cc2NC3=O)ccc1O  SGK1 (human) (UniProt O00141)         > 10 µM
2  Cc1cccc(NC(=O)Nc2ccc(-c3coc4ncnc(N)c34)cc2)c1  SGK1 (human) (UniProt O00141)            2 µM
3  Nc1ncnc2c1c(-c1cccc(OCc3ccccc3)c1)cn2[C@H]1C[C@H](CN2CCCC2)C1  SGK1 (human) (UniProt O00141)         > 10 µM
4  COc1ccc2c(NC(=O)Nc3cccc(C(F)(F)F)n3)ccnc2c1  SGK1 (human) (UniProt O00141)         > 10 µM

###

As an illustration, consider measured Ki for molecules on CDK19 (human).
recorded metric: Ki

In [3]: df
Out[3]:
                                smiles_repr  recorded_value
0      Oc1cc(Cc2nc3ccccc3[nH]2)nn1-c1ccccc1        > 100 µM
1  O=[N+]([O-])c1ccc(-n2nc(-c3ccncc3)cc2O)cc1        > 100 µM

###

- tested on: FGFR1 (human)
pKi: −log10 of the molar value.
recorded metric: pKi

>>> df
                      smiles_repr  recorded_metric  recorded_value
0  O=C1c2ccccc2-c2n[nH]c3cccc1c23              pKi            6.60

###

- tested on: SGK1 (human) (UniProt O00141)
recorded metric: Ki (nM)

>>> print(df.to_string())
                                   compound  recorded_metric  qualifier  recorded_value
0  COc1ccc(Nc2nccc(Nc3c(N[C@H](C)C(C)(C)C)c(=O)c3=O)n2)cc1OC               Ki          =            2000
1  COc1ccc(-c2cc3nccn3c(Nc3ncccc3C(N)=O)n2)cc1OC               Ki          >           10000
2  NC(=O)c1cc(Cl)cc2[nH]c(-c3ccc(C4CCCNC4)cc3F)nc12 (stereo not given)               Ki          >           10000
3  Nc1ncnc2onc(-c3ccc(NC(=O)Nc4cccc(C(F)(F)F)c4)cc3)c12               Ki          >           10000
4  CCOc1nc(C(=O)NCc2ccccc2S(N)(=O)=O)cc(N)c1C#N               Ki          >            6310
5      O=C(NCc1ccc(Br)cc1)Nc1ccc2[nH]ncc2c1               Ki          =            1000
6      c1ccc(CNc2nc3ccc(-c4ccncc4)cc3s2)cc1               Ki          =            2510
7  Cc1cc(C)cc(NC(=O)Nc2ccc(-c3cccc4snc(N)c34)cc2)c1               Ki          >           10000
8  Cc1cccc(C2(c3cccc(C)c3)CC2C(=O)Nc2ccncc2)c1 (stereo not given)               Ki          >           10000
9  Oc1ccc(-c2n[nH]c(Nc3cccc(Cl)c3)c2-c2ccc(O)cc2)cc1               Ki          =             631

###

- tested on: CSNK1G2 (human)
- method summary: Flashplate
recorded metric: Ki

                      smiles_repr  recorded_metric  recorded_value
0  O=C1c2ccccc2-c2n[nH]c3cccc1c23               Ki         2000 nM
